- System: PfHDP1 homeodomain (GST-tagged)
- Measurement Description: gcPBM binding intensity (ln(normalized median fluorescence intensity)); higher = stronger DNA binding
Whole data set: some 25,000 sequences, median “ln(normalized median fluorescence intensity)” near 6.7, cut for the highest 2% near 10. Many of the other results were omitted from the sample, so the highest values are more common in it than they were.
Would you mind labelling by gcPBM binding intensity (ln)? At or over 7 is label 1, under is label 0.

Worked examples, 8 sequences total:
| Macromolecule Sequence | Discrete Label |
| --- | --- |
| ATATATTTTTTGAATACACACATATTATCTGTAATA [CACACA_site4826] | label 0 |
| CAGATAAGATTTTGTGGTACTATTTATTAAATTAGA [XGTACX_site2644] | label 0 |
| CATATATATCGTAATGCACACATGTAATTTCATAAT [CACACA_site811] | label 1 |
| ATAAATCCCAAAACCTTGCAAGACAACGTTTGATCA [CACACA_negctrl_site1327] | label 0 |
| ATATTTTATTATATAGGTACACATAATTTCATGTAA [XGTACX_site415] | label 0 |
| CAAATAGCTAGCTGTGCACACAAACATATTTTCCAA [CACACA_site879] | label 1 |
| ATTCTATTATCCTTTGCACACAAAATAAATGAAAAA [CACACA_site3030] | label 1 |
| GATATCCTTATATTTGCACACACACCCAATAAAATG [CACACA_site1028] | label 1 |

Input: Confirm if gcPBM binding intensity (ln) reported for the sequence TCCAATTGTTCTAGTGTGCACATAAATAAATCTCAT is 7 or above.
Output: label 1

Input: Confirm if gcPBM binding intensity (ln) reported for the sequence AGCACATAAATAATTAAACACACATTGTTCTAGACA [CACACA_site8746] is 7 or above.
Output: label 0

Input: Confirm if gcPBM binding intensity (ln) reported for the sequence TAATACTTTTAATCTACACACGCTGAGACATGCTTT [CACACA_site1484] is 7 or above.
Output: label 0

----------
- Test system: PfHDP1 homeodomain (GST-tagged)
- Measurement Description: gcPBM binding intensity (ln(normalized median fluorescence intensity)); higher = stronger DNA binding
The full ranking holds about 25,000 sequences; the median of “ln(normalized median fluorescence intensity)” is about 6.7, and the highest 2% start at about 10. The entries come from a sample that favours the highest values as a whole.
Quantity Measured: gcPBM binding intensity (ln)
One number for each entry.

Some sequences with recorded gcPBM binding intensity (ln):
| Macromolecule Sequence | gcPBM binding intensity (ln) |
| --- | --- |
| AATATATCAAAAATGATGACATAAATATATTAATTT [GTGCAC_negctrl_site530] | 6.13 |
| TTTAATTATTAAATGGTGCACTTGAAATATAAAAAT | 10.1 |
| AAAAAAAAAGTATATATATATTTAAGGAATTCTCTC [GTGCAC_negctrl_site454] | 6.33 |
| ATTGTATCTGTATATGCACACAATATCTGTACTTCT [CACACA_site5445] | 10.1 |
| CCATAAAAAGGATACACACACACACCGACATATATA [CACACA_site4653] | 6.89 |
| ATACTGTATAGTCGCACACAAAAATATAAAATATTT [CACACA_site6004] | 6.65 |
| TTCTTTTCAGAAGGAAAGAATTATAACATATCATAA [XGTACX_negctrl_site548] | 6.13 |
| CACTAATATATATACAGTACATAATAAAGTATATAA [XGTACX_site6875] | 6.16 |

Turning to the following sequence.
Input: Please list gcPBM binding intensity (ln) recorded for the sequence TATTATATGTATTGCACACCTTCAACAACTACTTCT [CACACA_site655]
Output: 10.6
